- tested on: Recombinant human aldo-keto reductase family 1 member C2 (AKR1C2) protein (Homo sapiens)
- Construct: made in house; host or cells: Sf-9 insect cells (baculovirus)
- Sequence (P52895 whole entry): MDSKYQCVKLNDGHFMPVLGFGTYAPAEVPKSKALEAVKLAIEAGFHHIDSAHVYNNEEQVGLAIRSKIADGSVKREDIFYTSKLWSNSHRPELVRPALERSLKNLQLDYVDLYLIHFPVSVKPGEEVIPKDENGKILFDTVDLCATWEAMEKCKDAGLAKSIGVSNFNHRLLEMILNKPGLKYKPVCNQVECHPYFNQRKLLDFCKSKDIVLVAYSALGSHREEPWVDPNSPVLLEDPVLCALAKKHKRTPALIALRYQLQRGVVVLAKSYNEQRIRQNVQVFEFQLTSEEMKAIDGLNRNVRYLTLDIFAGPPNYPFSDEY
- assay protocol: Inhibition of the aldo-keto reductase family 1 member C2, 3H-dihydrotestosterone conversion
- Assay type: biochemical
- applied conditions: inhibitor at 10 μM
quantity name: inhibition at 10 µM (%)

Here are 5 molecules together with their reported answers.
COC1CCN(C(=O)N2CCC(=C(C#N)c3ccc(C(F)(F)F)cc3)CC2)CC1 :: 2
N#CC(=C1CCN(C(=O)N2CCn3nncc3C2)CC1)c1cccc(Cl)c1 :: 21
N#CC(=C1CCN(C(=O)N2CCc3sccc3C2)CC1)c1ccc(Cl)cc1 :: 9
N#CC(=C1CCN(C(=O)N2CCC(O)CC2)CC1)c1ccc(Cl)cc1 :: 7
COC[C@@H]1CCCN1C(=O)N1CCC(=C(C#N)c2ccc(F)cc2)CC1 :: 7

a: N#CC(=C1CCN(C(=O)N2CCc3nocc3C2)CC1)c1ccc(Cl)cn1
b: N#CC(=C1CCN(C(=O)N2CCc3[nH]ncc3C2)CC1)c1cccc2cn[nH]c12
Problem: // task: argmin of inhibition at 10 µM over [ a , b ] Which one? Tell me its label.
Solution: b
(b: 12%, a: 19%)

P: C[C@@H]1CCCCN1C(=O)N1CCC(=C(C#N)c2ccc(F)cc2)CC1
Q: N#CC(=C1CCN(C(=O)N2CC(C#N)C2)CC1)c1ccc(F)cc1F
Problem: Sort P and Q by inhibition at 10 µM descending and give the first. Which one? Tell me its label.
Solution: Q
(Q: 14%, P: 6%)

1: N#CC(=C1CCN(C(=O)N2CCc3nocc3C2)CC1)c1ccc(F)cc1F
2: N#CC(=C1CCN(C(=O)N2CCn3cccc3C2)CC1)c1ccc(F)cc1
3: N#CC(=C1CCN(C(=O)N2CCc3sccc3C2)CC1)c1ccc(F)cc1
Problem: Ascending by inhibition at 10 µM, please: list the molecules accordingly. A ranking is expressed here by listing the labels in the requested order.
Solution: 2, 3, 1
(2: 8%, 3: 21%, 1: 30%)

###

- tested on: Recombinant human AKR1C3 (17β-HSD5) protein (Homo sapiens)
- Construct: made in house; host or cells: E. coli
- Sequence (P42330 whole entry): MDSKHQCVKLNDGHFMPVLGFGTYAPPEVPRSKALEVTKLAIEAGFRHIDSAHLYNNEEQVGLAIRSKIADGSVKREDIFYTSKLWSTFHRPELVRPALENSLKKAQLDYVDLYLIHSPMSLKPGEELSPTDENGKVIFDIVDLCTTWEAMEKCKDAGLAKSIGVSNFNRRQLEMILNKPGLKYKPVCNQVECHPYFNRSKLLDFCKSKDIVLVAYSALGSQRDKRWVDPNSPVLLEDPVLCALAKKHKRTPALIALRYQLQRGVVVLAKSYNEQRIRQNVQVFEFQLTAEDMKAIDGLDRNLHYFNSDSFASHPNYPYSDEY
- assay protocol: Inhibition of AKR1C3 (17β-hydroxysteroid dehydrogenase type 5) enzyme, fluorescence assay
- Type: biochemical
- applied conditions: inhibitor at 500 nM
quantity name: inhibition at 0.5 µM (%)

N#CC(=C1CCN(C(=O)N2CCC(C(F)(F)F)CC2)CC1)c1cccc2[nH]ncc12 :: 97
N#CC(=C1CCN(C(=O)N2CCn3nncc3C2)CC1)c1cccc(Cl)c1 :: 99
CN(C(=O)N1CCC(=C(C#N)c2ccc(Cl)s2)CC1)C1COC1 :: 95
N#CC(=C1CCN(C(=O)N2CCn3cncc3C2)CC1)c1ccc(Cl)s1 :: 99
N#CC(=C1CCN(C(=O)N2CCc3sccc3C2)CC1)c1cccc2[nH]ncc12 :: 97
N#CC(=C1CCN(C(=O)N2C3CCC2COC3)CC1)c1cccc(Cl)c1 :: 99
N#CC(=C1CCN(C(=O)N2CCn3cncc3C2)CC1)c1ccc(Cl)cn1 :: 98
N#CC(=C1CCN(C(=O)N2CCc3sccc3C2)CC1)c1ccc(F)c(F)c1 :: 96
Cn1ncc2cccc(C(C#N)=C3CCN(C(=O)N4CCc5nocc5C4)CC3)c21 :: 99
N#CC(=C1CCN(C(=O)N2CCc3nocc3C2)CC1)c1ccc(C(F)(F)F)cc1 :: 99
N#CC(=C1CCN(C(=O)N2CCc3[nH]ncc3C2)CC1)c1ccc(F)c(F)c1 :: 103
N#CC(=C1CCN(C(=O)N2CCC(O)CC2)CC1)c1ccc(C(F)(F)F)cc1 :: 96
N#CC(=C1CCN(C(=O)N2CCCC2)CC1)c1ccc(F)cc1 :: 95
N#CC(=C1CCN(C(=O)N2CCC(O)CC2)CC1)c1ccc(Cl)s1 :: 96
N#CC(=C1CCN(C(=O)N2CCC(CCO)CC2)CC1)c1cccc(Cl)c1 :: 96
N#CC(=C1CCN(C(=O)N2CCn3cncc3C2)CC1)c1ccc(F)cc1F :: 99
N#CC(=C1CCN(C(=O)N2CCn3ncnc3C2)CC1)c1ccc(C(F)(F)F)cc1 :: 99
N#CC(=C1CCN(C(=O)N2CCCCC2)CC1)c1cc(F)cc(F)c1 :: 89

FYI, the data here is from patent US12637471B2.
